These compounds were tested on Jak2 (Homo sapiens, UniProt O60674); IC50 is the recorded read-out.
Sequence (O60674 849-1124 limits assumed, species assumed): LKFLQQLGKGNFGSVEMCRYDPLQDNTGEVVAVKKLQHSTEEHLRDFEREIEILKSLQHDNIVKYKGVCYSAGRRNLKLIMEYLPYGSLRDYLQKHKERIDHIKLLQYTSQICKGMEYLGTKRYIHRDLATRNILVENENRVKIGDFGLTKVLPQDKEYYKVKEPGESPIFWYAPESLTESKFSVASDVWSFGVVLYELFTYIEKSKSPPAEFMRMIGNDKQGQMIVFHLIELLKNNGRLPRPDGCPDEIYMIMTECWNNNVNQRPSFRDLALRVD

Worked examples follow.
CN1CCC(N2C(=O)c3cc4nc(-c5c(NC[C@@H](O)COc6cccc(Cl)c6F)cc[nH]c5=O)[nH]c4cc3C2=O)CC1 [compound 96]: 5 to 15 µM
Cc1c(Cl)cccc1OC[C@H](O)CNc1cc[nH]c(=O)c1-c1nc2cc3c(cc2[nH]1)C(=O)N(C1CCN(C)CC1)C3 [compound 133]: < 0.5 µM
Cc1ccc(OC[C@H](O)CNc2cc[nH]c(=O)c2-c2nc3cc4c(cc3[nH]2)C(=O)N(C2CCN(C)CC2)C4=O)c(C)c1 [compound 59]: 0.5 to 5 µM

Each of the following entries comes with a recorded value; kindly state IC50 for each.
1. O=C1c2cc3nc(-c4c(NC[C@@H](O)COc5c(F)ccc(Cl)c5F)cc[nH]c4=O)[nH]c3cc2C(=O)N1CC1CCN(CCO)CC1 [compound 120]
2. CCc1c(OC[C@H](O)CNc2cc[nH]c(=O)c2-c2nc3cc4c(cc3[nH]2)CN(C2CCN(C)CC2)C4=O)ccc2c1OCO2 [compound 162]
3. Cc1ccc(OCC(O)CNc2ccnc(O)c2-c2nc3cc4c(cc3[nH]2)C(=O)N(CC(C)(C)CN(C)C)C4=O)c(C)c1 (stereo not drawn) [compound 62]

Response given:
["0.5 to 5 µM", "< 0.5 µM", "5 to 15 µM"]
